system-under-test: MAGL (Mus musculus, UniProt O35678)
Construct: Proteomes (mouse brain membrane fraction or cell lysates)
Sequence (O35678 1-303): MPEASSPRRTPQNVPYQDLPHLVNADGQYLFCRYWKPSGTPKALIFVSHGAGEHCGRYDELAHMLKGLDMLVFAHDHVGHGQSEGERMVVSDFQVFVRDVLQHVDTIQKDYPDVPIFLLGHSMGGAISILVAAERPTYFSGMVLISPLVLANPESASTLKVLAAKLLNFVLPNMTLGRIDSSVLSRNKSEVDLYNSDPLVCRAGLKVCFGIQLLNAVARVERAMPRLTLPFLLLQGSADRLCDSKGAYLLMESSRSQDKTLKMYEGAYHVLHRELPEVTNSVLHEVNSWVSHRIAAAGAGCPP
test: In vitro competitive activity-based protein profiling (mouse), MAGL gel band
conditions-used: mouse
endpoint-label: IC50

Use these answered entries as a reference point.
| sample-smiles | system-under-test | IC50 |
| --- | --- | --- |
| CS(=O)(=O)Nc1ccn(C(=O)N2CCC3(CCCN3Cc3ccc(C(F)(F)F)cc3N3CCCCC3)CC2)n1 | MAGL (Mus musculus, UniProt O35678) | 100 to 1000 nM |
| CC(=O)Nc1ccn(C(=O)N2CCC3(CCCN3Cc3ccc(Cl)cc3N3CC4CCC(C3)O4)CC2)n1 | MAGL (Mus musculus, UniProt O35678) | ≤ 100 nM |

Here's the next entry for you.
Quick note, IC50 for CCN1CCN(c2cc(Cl)ccc2CN2CCN(C(=O)n3ccc(NC(C)=O)n3)CC2)CC1 landed at 100 to 1000 nM
